# Read-out: CYP3A5 (gene 1577)
# Experimental Details: LTEA_HepaRG_CYP3A5: Life Technologies and Expression Analysis (LTEA) Assay for CYP3A5 using HepaRG (AID 2283493)
# Cond: mRNA level, 48 h; actives raise or lower the signal
Activity calls are given as the source filed them. The calls were made as follows: active = hit-call score of the fitted dose curve at least 0.9, where 1 is the maximum; inactive = score below 0.9.
Measurement Type: AC50

Previously resolved entries follow.
Compound: CCOC(=O)CC(SP(=S)(OC)OC)C(=O)OCC (configuration not stated)
AC50: inactive
--
Compound: CCc1nn(C)c(C(=O)NCc2ccc(C(C)(C)C)cc2)c1Cl
AC50: 88.9 µM (active)
--
Compound: CC(C)Oc1cc(-n2nc(C(C)(C)C)oc2=O)c(Cl)cc1Cl
AC50: inactive
--
Compound: COC(=O)c1ccccc1C(=O)OC
AC50: inactive
--
Compound: CC1=C(C(=O)Nc2ccccc2)SCCO1
AC50: inactive
--
Compound: Cc1cc(Cl)ccc1OCC(=O)O
AC50: inactive
--
Compound: Cc1ccc(-c2c(Cl)nc(C#N)n2S(=O)(=O)N(C)C)cc1
AC50: inactive
--
Compound: CC(C)(C)c1ccc(CSc2cnn(C(C)(C)C)c(=O)c2Cl)cc1
AC50: 2.11 µM (active)

Find the recorded AC50 belonging to N#CC(CCc1ccc(Cl)cc1)(Cn1cncn1)c1ccccc1 (configuration not stated) and report it.
inactive

====

# Read-out: sulfotransferase (SULT2A), SULT2A1 (gene 6822)
# Experimental Details: CLD_SULT2A_6hr: CellzDirect (CLD) Gene Expression Assay for sulfotransferase (SULT2A) at 6 hours (AID 2283669);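 also: hits raise transcript level above the DMSO vehicle baseline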
Results filed as inconclusive are left out. Activity calls are given as the source filed them. The calls were made as follows: active = hit-call score of the fitted dose curve at least 0.9, where 1 is the maximum; inconclusive = response in the unintended direction; inactive = score below 0.9.
Choose one outcome from this list and give only that: Y = active, N = inactive

What was the test verdict on CCOC(=O)CC(SP(=S)(OC)OC)C(=O)OCC (centres undefined) ?
N

// same read-out, input: COc1nc(NC(C)C)nc(NC(C)C)n1
N

// same read-out, input: CCCCNC(=O)OCC#CI
N

// same read-out, input: Cc1cc(Cl)ccc1OCC(=O)O
N

// same read-out, input: CCc1nn(C)c(C(=O)NCc2ccc(C(C)(C)C)cc2)c1Cl
Y

// same read-out, input: C#CCOS(=O)OC1CCCCC1Oc1ccc(C(C)(C)C)cc1 (centres undefined)
N

// same read-out, input: N#Cc1nn(-c2c(Cl)cc(C(F)(F)F)cc2Cl)c(N)c1S(=O)C(F)(F)F (centres undefined)
N

// same read-out, input: CCOP(=S)(OCC)SCn1c(=O)oc2cc(Cl)ccc21
N

// same read-out, input: CON(C)C(=O)Nc1ccc(Cl)c(Cl)c1
N

// same read-out, input: OC(c1ccc(Cl)cc1)(c1cncnc1)c1ccccc1Cl (centres undefined)
N

// same read-out, input: CCNc1nc(Cl)nc(NC(C)C)n1
N

// same read-out, input: Cc1c(F)c(F)c(COC(=O)C2C(/C=C(\Cl)C(F)(F)F)C2(C)C)c(F)c1F (centres undefined)
N

// same read-out, input: CCOC(=O)C(Cl)Cc1cc(-n2nc(C)n(C(F)F)c2=O)c(F)cc1Cl (centres undefined)
N

// same read-out, input: CC1=C(C(=O)Nc2ccccc2)SCCO1
N

====

# Read-out: Interleukin-8 (IL8), CXCL8 (gene 3576)
# Experimental Details: BSK_hDFCGF_IL8: BioMAP Diversity Plus: hDFCGF Assay for Interleukin-8 (IL8) Biomarker Activity (AID 2283058)
# Cond: primary human foreskin fibroblasts; actives raise or lower the signal
The source made the active and inactive calls. How the source made its calls: active means hit-call score of the fitted dose curve at least 0.9, where 1 is the maximum; inactive means score below 0.9.
Choose one outcome from this list and give only that: active, inactive

What was the test verdict on CN(C)C(=S)SSC(=S)N(C)C ?
active

// same read-out, input: CC(C)C1(C)N=C(c2nc3ccccc3cc2C(=O)O)NC1=O (configuration not stated)
inactive

// same read-out, input: COP(N)(=O)SC (configuration not stated)
inactive

// same read-out, input: CCCCNC(=O)n1c(NC(=O)OC)nc2ccccc21
inactive

// same read-out, input: CCCCOC(=O)c1ccccc1C(=O)OCCCC
inactive

// same read-out, input: COc1nc(C)nc(NC(=O)NS(=O)(=O)c2ccccc2Cl)n1
inactive

// same read-out, input: Cc1cc(Cl)ccc1OCC(=O)O
inactive

// same read-out, input: CCOc1cc(Oc2ccc(C(F)(F)F)cc2Cl)ccc1[N+](=O)[O-]
inactive

// same read-out, input: CS/C(C)=N/OC(=O)N(C)SN(C)C(=O)O/N=C(\C)SC
inactive

// same read-out, input: CCNc1nc(Cl)nc(NCC)n1
inactive

// same read-out, input: CCOP(=S)(OCC)SCn1c(=O)oc2cc(Cl)ccc21
inactive

// same read-out, input: CCOC(=O)C(Cl)Cc1cc(-n2nc(C)n(C(F)F)c2=O)c(F)cc1Cl (configuration not stated)
inactive

// same read-out, input: OC(c1ccc(Cl)cc1)(c1cncnc1)c1ccccc1Cl (configuration not stated)
inactive

// same read-out, input: CCOC(=O)CC(SP(=S)(OC)OC)C(=O)OCC (configuration not stated)
inactive

// same read-out, input: COc1cnc(OC)n2nc(NS(=O)(=O)c3c(OCC(F)F)cccc3C(F)(F)F)nc12
inactive

// same read-out, input: COC(=O)N(OC)c1ccccc1COc1ccn(-c2ccc(Cl)cc2)n1
active

// same read-out, input: Cc1c(F)c(F)c(COC(=O)C2C(/C=C(\Cl)C(F)(F)F)C2(C)C)c(F)c1F (configuration not stated)
inactive

// same read-out, input: O=C(O)COc1nc(Cl)c(Cl)cc1Cl
inactive

// same read-out, input: COC(=O)C(C)Oc1ccc(Oc2ccc(Cl)cc2Cl)cc1 (configuration not stated)
inactive

// same read-out, input: CC(Oc1ccc(Cl)cc1Cl)C(=O)O (configuration not stated)
inactive

// same read-out, input: Oc1ccccc1-c1ccccc1
inactive

// same read-out, input: CCc1nn(C)c(C(=O)NCc2ccc(C(C)(C)C)cc2)c1Cl
active

// same read-out, input: CC(C)(C)c1ccc(CSc2cnn(C(C)(C)C)c(=O)c2Cl)cc1
inactive

// same read-out, input: C#CCOS(=O)OC1CCCCC1Oc1ccc(C(C)(C)C)cc1 (configuration not stated)
active

// same read-out, input: CCON=C(CC)C1=C(O)CC(c2c(C)cc(C)cc2C)CC1=O (configuration not stated)
inactive

// same read-out, input: O=C(Nc1ccccc1)Nc1ccnc(Cl)c1
inactive

// same read-out, input: CNC(=S)S
inactive

====

# Target Entity: PGR (gene 5241) (UniProt P06401)
# Sequence (P06401 whole entry, looked up): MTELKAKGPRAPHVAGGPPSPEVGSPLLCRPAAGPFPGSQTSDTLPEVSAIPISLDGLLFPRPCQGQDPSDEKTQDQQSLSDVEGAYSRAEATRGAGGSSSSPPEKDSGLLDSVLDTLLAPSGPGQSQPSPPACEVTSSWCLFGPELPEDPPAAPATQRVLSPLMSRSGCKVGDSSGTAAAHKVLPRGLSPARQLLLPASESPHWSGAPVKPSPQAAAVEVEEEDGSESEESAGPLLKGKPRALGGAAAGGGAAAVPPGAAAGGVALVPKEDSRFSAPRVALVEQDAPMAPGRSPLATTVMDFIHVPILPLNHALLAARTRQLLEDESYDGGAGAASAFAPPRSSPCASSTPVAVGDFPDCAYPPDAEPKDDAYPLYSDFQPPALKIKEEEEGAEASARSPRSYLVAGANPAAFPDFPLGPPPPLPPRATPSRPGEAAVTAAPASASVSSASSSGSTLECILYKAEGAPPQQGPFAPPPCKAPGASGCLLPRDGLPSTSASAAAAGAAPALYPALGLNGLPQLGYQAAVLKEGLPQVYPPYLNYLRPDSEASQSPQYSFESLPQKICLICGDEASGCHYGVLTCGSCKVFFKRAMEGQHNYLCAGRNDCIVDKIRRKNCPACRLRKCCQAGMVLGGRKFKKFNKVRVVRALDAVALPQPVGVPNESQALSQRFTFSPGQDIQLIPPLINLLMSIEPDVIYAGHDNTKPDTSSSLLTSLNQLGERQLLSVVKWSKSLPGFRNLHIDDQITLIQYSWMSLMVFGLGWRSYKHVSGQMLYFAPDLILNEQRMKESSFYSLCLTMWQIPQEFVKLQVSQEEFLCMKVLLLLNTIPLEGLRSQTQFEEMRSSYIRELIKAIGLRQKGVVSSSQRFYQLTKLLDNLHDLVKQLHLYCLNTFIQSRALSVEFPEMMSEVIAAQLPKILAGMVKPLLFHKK
# Experimental Details: NVS_NR_hPR: NovaScreen (NVS) Nuclear Receptor Binding Assay for human Progestron Receptor (PR) (AID 2283360);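 also: active means loss of bound radioligand signal versus DMSO baseline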
Records with an inconclusive call do not appear. Active and inactive are the calls of the source. How the source made its calls: active means hit-call score of the fitted dose curve at least 0.9, where 1 is the maximum; inconclusive means response in the unintended direction; inactive means score below 0.9.
Choose one outcome from this list and give only that: active, inactive

What was the test verdict on COC(=O)c1ccccc1C(=O)OC ?
inactive

// same read-out, input: CCCN(CCC)c1c([N+](=O)[O-])cc(S(N)(=O)=O)cc1[N+](=O)[O-]
active

// same read-out, input: CC(C)Oc1cc(-n2nc(C(C)(C)C)oc2=O)c(Cl)cc1Cl
inactive

// same read-out, input: CON(C)C(=O)Nc1ccc(Cl)c(Cl)c1
inactive

// same read-out, input: CCOP(=S)(OCC)SCn1c(=O)oc2cc(Cl)ccc21
inactive

// same read-out, input: CCCC1COC(Cn2cncn2)(c2ccc(Cl)cc2Cl)O1 (centres undefined)
inactive

// same read-out, input: CCNc1nc(Cl)nc(NC(C)C)n1
inactive

// same read-out, input: CC1COC(Cn2cncn2)(c2ccc(Oc3ccc(Cl)cc3)cc2Cl)O1 (centres undefined)
inactive

// same read-out, input: CNC(=O)ON=CC(C)(C)SC
inactive

====

# Read-out: ABC Transporter (ABCB1), ABCB1 (gene 5243)
# Experimental Details: CLD_ABCB1_24hr: CellzDirect (CLD) Gene Expression Assay for ABC Transporter (ABCB1) at 24 hours (AID 2283684)
Results filed as inconclusive are left out. The source made the active and inactive calls. How the source made its calls: active means hit-call score of the fitted dose curve at least 0.9, where 1 is the maximum; inconclusive means response in the unintended direction; inactive means score below 0.9.
Measurement Type: outcome

Previously resolved entries follow.
Compound: COP(=S)(OC)Oc1nc(Cl)c(Cl)cc1Cl
outcome: inactive
//
Compound: Cc1c(F)c(F)c(COC(=O)C2C(/C=C(\Cl)C(F)(F)F)C2(C)C)c(F)c1F (stereo unspecified)
outcome: inactive
//
Compound: CC(C)Oc1cc(-n2nc(C(C)(C)C)oc2=O)c(Cl)cc1Cl
outcome: inactive
//
Compound: COc1nc(NC(C)C)nc(NC(C)C)n1
outcome: inactive

Find the recorded outcome belonging to CCCCNC(=O)OCC#CI and report it.
inactive

// same read-out, input: CCON=C(CC)C1=C(O)CC(c2c(C)cc(C)cc2C)CC1=O (stereo unspecified)
inactive

// same read-out, input: CCNc1nc(Cl)nc(NC(C)C)n1
inactive
